target: recombinant human c-MET kinase enzyme domain (Homo sapiens); construct: Recombinant c-Met kinase domain (amino acids 960-1390); His (N); SF21 is named only for the alternative format); assay: c-MET receptor tyrosine kinase Homogeneous Time Resolved Fluorescence assay (HTRF); conditions: Biological Example 1 and/or Biological Example 2
Sequence (P08581 960-1390): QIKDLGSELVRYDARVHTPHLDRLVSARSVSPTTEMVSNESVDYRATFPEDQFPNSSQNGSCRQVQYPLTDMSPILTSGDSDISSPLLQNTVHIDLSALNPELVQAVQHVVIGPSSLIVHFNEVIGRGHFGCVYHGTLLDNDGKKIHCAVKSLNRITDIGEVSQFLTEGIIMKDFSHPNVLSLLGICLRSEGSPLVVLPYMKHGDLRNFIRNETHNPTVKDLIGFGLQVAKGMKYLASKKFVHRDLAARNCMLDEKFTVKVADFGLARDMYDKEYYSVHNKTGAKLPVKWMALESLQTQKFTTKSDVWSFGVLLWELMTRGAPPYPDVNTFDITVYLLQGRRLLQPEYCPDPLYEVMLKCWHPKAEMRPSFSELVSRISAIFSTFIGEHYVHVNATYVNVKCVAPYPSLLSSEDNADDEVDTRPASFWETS
Structures can show the parent of a compound that is named as a salt.
measured property: IC50

Consider the reported IC50 for these compounds:
CC1=C(C#N)C(c2ccc3[nH]nc(N)c3c2)C(C#N)=C(c2ccoc2C)N1 (centres unmarked): < 0.1 µM
CC1=C(C#N)C(c2cccc(C(=O)Nc3ccc(N(C)C)cn3)c2)C(C#N)=C(C)N1: 0.1 to 0.5 µM
CC1=C(C#N)C(c2ccc3[nH]nc(NCc4ccccc4)c3c2)C(C#N)=C(C)N1: < 0.1 µM
CC1=C(C#N)C(c2ccc3[nH]ncc3c2)C(C#N)=C(c2cccc([N+](=O)[O-])c2)N1 (centres unmarked): < 0.1 µM
CC1=C(C#N)C(c2ccc3[nH]nc(-c4ccc(N5CCNCC5)cc4)c3c2)C(C#N)=C(C)N1: < 0.1 µM

Working through the 6 compounds below one at a time, give IC50 for each.
1. C#CCN1C(C)=C(C#N)C(c2ccc3[nH]ncc3c2)C(C#N)=C1C
2. CC1=C(C#N)C(c2cccc(NC(=O)c3ccncc3)c2)C(C#N)=C(C)N1
3. CC1=C(C#N)C(c2ccc3[nH]nc(C(=O)NCCN(C)C)c3c2)C(C#N)=C(C)N1 [103.1, TFA salt]
4. CC1=C(C#N)C(c2ccc3[nH]ncc3c2)C(C#N)=C(c2ccnc(Cl)c2)N1 (centres unmarked)
5. CC1=C(C#N)C(c2ccc3[nH]nc(-c4cnn(C5CCNCC5)c4)c3c2)C(C#N)=C(C)N1
6. CC1=C(C#N)C(c2ccc3[nH]ncc3c2)C(C#N)=C(CCN)N1 (centres unmarked)

RESULT:
1: < 0.1 µM; 2: 0.5 to 2.5 µM; 3: < 0.1 µM; 4: < 0.1 µM; 5: < 0.1 µM; 6: < 0.1 µM

Need IC50 for each of these compounds.
1. CC1=C(C#N)C(c2ccc3[nH]nc(N)c3c2)C(C#N)=C(C)N1C
2. CCOC(=O)C1=C(C#N)C(c2ccc3[nH]ncc3c2)C(C#N)=C(C)N1 (centres unmarked)

RESULT:
< 0.1 µM
< 0.1 µM

Value sought for every listed compound: IC50.
1. CC1=C(C#N)C(c2ccc3[nH]ncc3c2)C(C#N)=C2CCCCN12 (centres unmarked)
2. CC1=C(C#N)C(c2ccc3[nH]ncc3c2)C(C#N)=C(c2ccc(C(=O)NCCN3CCOCC3)cc2)N1 (centres unmarked)
3. CC1=C(C#N)C(c2cccc(C(=O)Nc3ccccn3)n2)C(C#N)=C(C)N1
4. CNC(=O)c1cccc(C2C(C#N)=C(C)NC(C)=C2C#N)c1 [compound 12, TFA salt]

RESULT:
1. < 0.1 µM
2. < 0.1 µM
3. < 0.1 µM
4. 0.5 to 2.5 µM

====

target: recombinant human c-MET kinase enzyme domain (Homo sapiens); construct: Recombinant c-Met kinase domain (amino acids 960-1390); His (N); SF21 is named only for the alternative format); assay: c-MET receptor tyrosine kinase Homogeneous Time Resolved Fluorescence assay (HTRF); conditions: Biological Example 1 and/or Biological Example 2
Where a name gives a salt, the structure may show the parent alone.
measured property: IC50

Some solved cases for reference:
CC1=C(C#N)C(c2cccc(C(=O)Nc3ccc(C(F)(F)F)cn3)c2)C(C#N)=C(C)N1: 500 to 2500 nM
CC1=C(C#N)C(c2ccc3[nH]ncc3c2)C(C#N)=C(c2cccc(N)c2)N1 (stereo not drawn): < 100 nM
CC1=C(C#N)C(c2ccc3[nH]nc(-c4ccc(CN(C)C)cc4)c3c2)C(C#N)=C(C)N1: < 100 nM
CCOC(=O)N1CCN(Cc2n[nH]c3ccc(C4C(C#N)=C(C)NC(C)=C4C#N)cc23)CC1 [167.1, TFA salt]: < 100 nM
CC1=C(C#N)C(c2cccc(NC(=O)c3cnc[nH]3)c2)C(C#N)=C(C)N1: 100 to 500 nM
CC1=C(C#N)C(c2cccc(NC(=O)CBr)c2)C(C#N)=C(C)N1: 500 to 2500 nM

Hi, could you look up IC50 for each item in my list?
1. CC1=C(C#N)C(c2ccc3[nH]nc(O)c3c2)C(C#N)=C(C)N1
2. CC1=C(C#N)C(c2ccc3[nH]nc(N)c3c2)C(C#N)=C(C)N1CCO

RESULT:
1. 500 to 2500 nM
2. < 100 nM

Fill in: recombinant human c-MET kinase enzyme domain (Homo sapiens) IC50 for CC1=C(C#N)C(c2ccc3[nH]ncc3c2)C(C#N)=C(c2ccc(N3CCOCC3)c(F)c2)N1 (stereo not drawn) = < 100 nM
